Quick reference for % activity* among some binders
# study_target: glucagon receptor (UniProt P47871 26-477, limits assumed)
# Sequence (P47871 26-477 limits assumed): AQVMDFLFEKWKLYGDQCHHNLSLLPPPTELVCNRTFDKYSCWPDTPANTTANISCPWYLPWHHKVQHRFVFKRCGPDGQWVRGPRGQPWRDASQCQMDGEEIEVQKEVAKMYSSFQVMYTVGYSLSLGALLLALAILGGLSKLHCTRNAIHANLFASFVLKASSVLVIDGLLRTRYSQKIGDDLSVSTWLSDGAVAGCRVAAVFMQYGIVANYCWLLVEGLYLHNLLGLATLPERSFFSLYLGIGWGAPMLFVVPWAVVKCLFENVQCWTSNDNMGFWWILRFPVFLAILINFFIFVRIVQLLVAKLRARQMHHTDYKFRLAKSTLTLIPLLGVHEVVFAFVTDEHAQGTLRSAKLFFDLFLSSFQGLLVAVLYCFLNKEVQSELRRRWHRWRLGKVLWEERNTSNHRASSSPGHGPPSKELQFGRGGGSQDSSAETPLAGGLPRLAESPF
# protocol_notes: cell-based or functional assay
Where no end group is shown, it is not given here. [ ]: non-standard residue; d: D form. The star is where a group is joined. Met(O) = CS(=O)CC[C@H](N)C(=O)O; Nle = CCCC[C@H](N)C(=O)O; Dab = NCC[C@H](N)C(=O)O; Aib = CC(C)(N)C(=O)O; Acm = CC(=O)NC*
quantity_measured: % activity*

[[record]]
binder = "HSC(Acm)GTFTSDYSKYLDTRRAAEFVAWL[Nle]DE [Peptide J backbone with C(Acm) at position 3]"
meas_value = "33%"

[[record]]
binder = "HSQGTFTSDYSKYLDTRRAAEFVAWL[Nle]DE [Peptide J backbone with Q at position 3]"
meas_value = "25%"

[[record]]
binder = "HSQGTFTSDYSKYLD[Aib]RRAADFVAWLMDE [Peptide K backbone with Q at position 3]"
meas_value = "15%"

[[record]]
binder = "HS[Dab](Ac)GTFTSDYSKYLD[Aib]RRAADFVAWLMDE [Peptide K backbone with Dab(Ac) at position 3]"
meas_value = "86%"

[[record]]
binder = "HS[Met(O)]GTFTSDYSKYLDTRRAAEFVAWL[Nle]DE [Peptide J backbone with M(O) at position 3]"
meas_value = "7%"

